Please consider the recorded Ki for 5-hydroxytryptamine receptor 2A (Rattus norvegicus) in what follows.

Input line: Value wanted: Ki (5-hydroxytryptamine receptor 2A (Rattus norvegicus)) of entry "COc1ccccc1N1CCN(CCCn2ccn3c4c(=O)n(C)c(=O)n(C)c4nc23)CC1"
Output line: > 1000 nM

Input line: Next entry: "Cn1c(=O)c2c(nc3n(CCCN4CCN(c5cccc(Cl)c5)CC4)c(-c4ccccc4)cn23)n(C)c1=O"
Output line: > 1000 nM

Input line: Next compound up: "Cn1c(=O)c2c(nc3n(CCCN4CCN(c5ccccc5)CC4)ccn23)n(C)c1=O"
Output line: > 1000 nM
